- Tested on: F/L-HERc cells expressing human EGF-R
- assay.details: Inhibition of EGF-dependent proliferation of F/L-HERc cells
- Assay type: cell-based, murine cell line; human EGF-R
- test.context: EGF 20 ng/ml, 37° C., 48 hours
pIC50: −log10 of the molar value.
Below, each entry is listed with its recorded pIC50.
measurement.kind: pIC50

[[record]]
molecule = "COc1ccccc1N1CCN(c2ncc3ncnc(Nc4ccc(F)c(Cl)c4)c3n2)CC1"
assay_result = "< 6.00"

[[record]]
molecule = "Nc1ncc2ncnc(Nc3ccc(F)c(Cl)c3)c2n1"
assay_result = "< 7.00"

[[record]]
molecule = "Fc1ccc(Nc2ncnc3cnc(N4CCCCC4)nc23)cc1Cl"
assay_result = "< 6.00"

[[record]]
molecule = "Fc1ccc(Nc2ncnc3cnc(NC4CCCN(Cc5ccccc5)CC4)nc23)cc1Cl (stereo not shown)"
assay_result = "< 7.00"

